# Read-out: sulfotransferase 2A1 (SULT2A1), SULT2A1 (gene 6822)
# test.protocol: LTEA_HepaRG_SULT2A1: Life Technologies and Expression Analysis (LTEA) Assay for sulfotransferase 2A1 (SULT2A1) using HepaRG (AID 2283531)
# test.settings: mRNA level, 48 h; actives raise or lower the signal
Calls of active or inactive are those of the source. How the source made its calls: active means hit-call score of the fitted dose curve at least 0.9, where 1 is the maximum; inactive means score below 0.9.
quantity.kind: AC50

As a guide, the following entries are already answered.
>  <structure.notation>
C[C@@H]1C[C@@H]([C@H](O)CC2CC(=O)NC(=O)C2)C(=O)[C@@H](C)C1

>  <test.result>
48.9 µM (active)

$$$$
>  <structure.notation>
O=C(O)C(F)(F)C(F)(F)C(F)(F)C(F)(F)C(F)(F)C(F)(F)C(F)(F)C(F)(F)C(F)(F)C(F)(F)F

>  <test.result>
47.8 µM (active)

$$$$
>  <structure.notation>
CN(C)N=O

>  <test.result>
inactive

$$$$
>  <structure.notation>
O=[N+]([O-])c1ccc(O)c([N+](=O)[O-])c1

>  <test.result>
17.7 µM (active)

$$$$
>  <structure.notation>
CC(C)(OO)c1ccccc1

>  <test.result>
inactive

$$$$

Hello, I would appreciate it if you could give AC50 for each entry below.
1. CC(C)(C)CC(C)(C)c1ccc(O)cc1
2. CCCCCCCCc1ccc(O)cc1
3. C=CC(=O)OCCCCCC(C)C

inactive
inactive
inactive
